Each entry below carries its reported EC50 in PBMC Assay 2 (precomplexed IL-18BP), IFNγ.
# Target or system: T1, human IL-18BP (interleukin-18 binding protein, isoform A) (human, UniProt O95998 31-194)
# T1 sequence: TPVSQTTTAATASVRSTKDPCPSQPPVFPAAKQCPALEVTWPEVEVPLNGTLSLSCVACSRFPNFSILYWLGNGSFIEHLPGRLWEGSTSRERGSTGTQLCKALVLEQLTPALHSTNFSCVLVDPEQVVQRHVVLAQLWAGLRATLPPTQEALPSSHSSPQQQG
# Experiment description: cell-based or functional assay
Experimental readout: EC50 in PBMC Assay 2 (precomplexed IL-18BP), IFNγ (nM)

Binder	Endpoint result
SA327a (antibody, human IgG1, V domains shown, humanized; human IgG1 (suffix a), kappa) VH: QVQLQESGPGLVKPSQTLSLTCTVSGYSITSDYNAHWIRQPPGKGLEWIGYIHYSGSTNYNPSLKSRVTISRDTSKNQFSLKLSSVTAADTAVYYCARNYGSIYVNYFDYWGQGTLVTVSS VL: EIVLTQSPATLSLSPGERATLSCSASSSVSYMYWYQQKPGQAPRPLIYRTSNLASGIPARFSGSGSGTDFTLTISSLEPEDFAVYYCQQYHGYPTFGGGTKVEIK	4
SA330a (antibody, human IgG1, V domains shown, humanized; human IgG1 (suffix a), kappa) VH: QVQLQESGPGLVKPSQTLSLTCTVSGYSITSDYNAHWIRQPPGKGLEWIGYIHYSGQTYYNPSLKSRVTISRDTSKNQFSLKLSSVTAADTAVYYCARNFGSIYVNYFDYWGQGTLVTVSS VL: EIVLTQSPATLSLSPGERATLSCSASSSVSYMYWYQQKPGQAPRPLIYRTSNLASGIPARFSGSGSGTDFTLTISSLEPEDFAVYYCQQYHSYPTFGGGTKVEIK	0.9
SA326a (antibody, human IgG1, V domains shown, humanized; human IgG1 (suffix a), kappa) VH: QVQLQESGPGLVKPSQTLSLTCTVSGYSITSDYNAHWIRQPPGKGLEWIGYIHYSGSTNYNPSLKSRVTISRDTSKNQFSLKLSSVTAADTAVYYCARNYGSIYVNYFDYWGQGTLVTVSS VL: EIVLTQSPATLSLSPGERATLSCSASSSVSYMYWYQQKPGQAPRPLIYRTSNLASGIPARFSGSGSGTDFTLTISSLEPEDFAVYYCQLYHSYPTFGGGTKVEIK	1.2
